- EXPERIMENT DESCRIPTION: Microsomal stability in rat liver microsomes assessed as intrinsic clearance
- Type: ADME, Microsome
- EXPERIMENTAL CONTEXT: read-out: CLH
PARAMETER: CLint scaled

// worked examples, CLint scaled included
QUERY SMILES: C[C@@H](C(=O)N1CCNC(C)(C)C1)N1CCC(n2c(=O)[nH]c3ccccc32)CC1
CLint scaled: 56 mL/min/kg
--
QUERY SMILES: C[C@@H](C(=O)N1CCC(F)(F)C1)N1CCC(n2c(=O)[nH]c3ccccc32)CC1
CLint scaled: > 300 mL/min/kg
--
QUERY SMILES: CC[C@H]1CN(C(=O)[C@H](C)N2CCC(n3c(=O)[nH]c4ccccc43)CC2)CCN1
CLint scaled: 59 mL/min/kg
--
QUERY SMILES: C[C@@H](CN1CCC2(CC1)OC(=O)Nc1cccnc12)NC(=O)c1ccc(F)cc1
CLint scaled: 48 mL/min/kg

Shift focus to the following entry.
May I ask what CLint scaled has been recorded for C[C@@H](CN1CCC2(CC1)OC(=O)Nc1ccccc12)NC(=O)c1ccc(F)cc1 ? 103 mL/min/kg

Just for reference, ChEMBL document CHEMBL5046323 is where these values come from.
